# experimental.system: T1, natural Fel d1 (Indoor Biotech, #NA-FD1-2) (cat, UniProt P30438 23-92; P30440 18-109)
# T1 construct: Bought natural heterodimeric glycoprotein, chains linked by disulfide bonds; also called nFel d1; nFel d 1
# T1 sequence (P30438 other isoform, or with tags, fused parts or gaps, chain 1 of 2): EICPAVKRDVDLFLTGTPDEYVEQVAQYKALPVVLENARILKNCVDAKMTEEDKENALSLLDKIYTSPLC
# T1 sequence (P30440 18-109, chain 2 of 2): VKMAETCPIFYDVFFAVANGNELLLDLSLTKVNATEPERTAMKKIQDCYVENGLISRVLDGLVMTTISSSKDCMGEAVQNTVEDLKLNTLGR
# test.method.notes: SPR (Biacore), mAb captured, natural Fel d1 injected, 25 C;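 also: rate constants obtained by fitting association and dissociation phases to a one-to-one binding model, with Kd and half-life derived from those rate constants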
Give t1/2 for every item shown.
Numbers only, in min.

| binder | t1/2 [min] |
| --- | --- |
| H4H2597B (antibody, human IgG4, V domains shown, human IgG4 Fc (H4H prefix)) VH: EVQLVESGGGLVQPGGSLRLSCAVSGFTFSNYAMNWVRQAPGKGLEWVSVISDSGRSTYYADSVKGRFTISRDNSKNTLYLQMNSLRAEDTAVYFCAKRYNWNLHYFDYWGQGTTVTVSS VL: EIVLTQSPDFQSVTPKEKVTITCRASQSIGGSLHWYQQKPDQSPKLLIKYASQSFSGVPSRFSGSGSGTDFTLTINSLEAEDAATYYCLQSSSLRTFGQGTKVEIKR | 8 |

Give t1/2 for all binders that follow.
1. H4H1232N (antibody, human IgG4, V domains shown, human IgG4 Fc (H4H prefix)) VH: EVQLVESGGGLVKPGGSLRLSCAASGFTFRNYNINWVRQAPGKGLEWVSLISGSSSYIYYADSVKGRFTVSRDNAKNSLYLQMNSLRAEDTAVYYCARRTLSYYVMDVWGQGTTVTVSS VL: DIQVTQSPSPLSASVGDRVTITCRASQGISNYLAWYQQKPGRVPQLLIYAASTLQSGVPSRFSGSGSGTDFTLTISSLQPEDVATYYCQKYNSAPYTFGQGTKLEIK
2. H4H2864P (antibody, human IgG4, V domains shown, human IgG4 Fc (H4H prefix)) VH: EVQLVESGGGLAQPGGSLRLSCAASGFTFNNYAMTWVRQAPGKGLDWVSAISDSGRSTFSADSVKGRFTISRDNSKNTLYLQMDSLRAEDTALYYCAKHRNWNYPVFDYWGQGTLVTVSS VL: DIQLTQSPSFLSASVGDRVTITCWASQGISSYLAWYQQKPGKAPKLLIYSASTLQSGVPSRFSGSGSGTEFTLTISSLQPEDFATYYCQQLNSYPFTFGPGTKVDIK

1. 35
2. 9
